From: patent US20070003672A1

Test: Physical/chemical attributes (calcium, pH, titratable acidity, Brix, Brix/Acid ratio) of calcium fortified orange juice
Format: physicochemical
Design: unit not given here
Settings: orange juice fortified at 450 mg/100 mL calcium load
// classify: if (Calcium - Juice (48 Hours) < 200) 1.0 else 0.0

Compound: N[C@@H](CCC(=O)[O-])C(=O)[O-].O.O.O.O.[Ca+2] [calcium L-glutamate tetrahydrate]
Category label: 0.0

Compound: O=P([O-])([O-])[O-].O=P([O-])([O-])[O-].[Ca+2].[Ca+2].[Ca+2] [tricalcium phosphate]
Category label: 1.0

Compound: O.O=P([O-])(O)O.O=P([O-])(O)O.[Ca+2] [monocalcium phosphate monohydrate]
Category label: 0.0

Compound: O.O=P([O-])([O-])OCC(O)CO.[Ca+2] (centres unmarked) [calcium glycerophosphate monohydrate]
Category label: 1.0

Compound: O.O.O=P([O-])([O-])O.[Ca+2] [dicalcium phosphate dihydrate]
Category label: 1.0

---

Calcium - Juice (48 Hours) values, listed per item
Test: Physical/chemical attributes (calcium, pH, titratable acidity, Brix, Brix/Acid ratio) of calcium fortified orange juice
Assay type: physicochemical
Parameters: unit not given here
Details: orange juice fortified at 450 mg/100 mL calcium load
Readout name: Calcium - Juice (48 Hours)

Compound: O.O.[Ca+2].[Cl-].[Cl-] [calcium chloride dihydrate]
Readout name: Calcium - Juice (48 Hours)
Quantitative readout: 206
--
Compound: O=C([O-])[O-].[Ca+2] [calcium carbonate]
Readout name: Calcium - Juice (48 Hours)
Quantitative readout: 200
--
Compound: O=P([O-])([O-])O.[Ca+2] [dicalcium phosphate anhydrous]
Readout name: Calcium - Juice (48 Hours)
Quantitative readout: 203
